Exercise: for every item that follows, state its recorded Kd.
# system-under-test: GDP-bound KRAS wild-type protein (Homo sapiens, UniProt P01116)
# Sequence (P01116 1-188 isoform P01116-2): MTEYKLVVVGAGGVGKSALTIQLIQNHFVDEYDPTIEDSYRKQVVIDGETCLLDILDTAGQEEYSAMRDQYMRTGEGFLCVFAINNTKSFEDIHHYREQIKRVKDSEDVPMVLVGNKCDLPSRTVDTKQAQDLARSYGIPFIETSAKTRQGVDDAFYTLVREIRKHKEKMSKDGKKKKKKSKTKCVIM
# test-name: Binding to KRAS by surface plasmon resonance (SPR), dissociation constant KD
# particulars: Single Cycle Kinetics, 1:1 binding model
Numbers only, in nM.

CCO[C@@H]1C[C@H]2C(=O)NC3(CCC3)C(=O)N(C)[C@@H](C3CCCC3)C(=O)N(CCC3CCCC3)[C@H](C(=O)N3CCOCC3)CC(=O)N(C)[C@@H](CC(C)C)C(=O)N[C@@H]([C@@H](C)CC)C(=O)N(C)CC(=O)N(C)[C@H]3CCCCCN(C3=O)[C@@H](Cc3ccc(C(F)(F)F)cc3)C(=O)N(C)CC(=O)N[C@@H](CCc3cc(F)c(C(F)(F)F)c(F)c3)C(=O)N2C1 [PP0641]
26

Can you give me Kd for all of these, one by one?
1. CC[C@H](C)[C@@H]1NC(=O)[C@H](CC)N(C)C(=O)C[C@@H](C(=O)N(C)C)N(C)C(=O)[C@H](C2CCCC2)N(C)C(=O)C2(CCC2)NC(=O)[C@@H]2C[C@H](C)CN2C(=O)[C@H](CCc2cc(F)c(C(F)(F)F)c(F)c2)NC(=O)CN(C)C(=O)[C@H](CC2CCC(F)(F)CC2)N2CC/C=C\C[C@@H](C2=O)N(C)C(=O)CN(C)C1=O [PP1457]
2. CCO[C@@H]1C[C@H]2C(=O)NC3(CCC3)C(=O)N(C)[C@@H](C(CC)CC)C(=O)N(C)[C@H](C(=O)N(C)C)CC(=O)N(C)[C@@H](C)C(=O)N[C@@H]([C@@H](C)CC)C(=O)N(C)CC(=O)N(C)[C@H]3C/C=C\CCN(C3=O)[C@@H](Cc3ccc(C(F)(F)F)cc3)C(=O)N(C)CC(=O)N[C@@H](CCc3ccc(Cl)c(Cl)c3)C(=O)N2C1 [PP1214]
3. CCO[C@@H]1C[C@H]2C(=O)NC3(CCC3)C(=O)N(C)[C@@H](C3CCCC3)C(=O)N(C)[C@H](C(=O)N(C)C)CC(=O)N(C)[C@@H](CC(C)(C)C)C(=O)N[C@@H]([C@@H](C)CC)C(=O)N(C)CC(=O)N(C)[C@H]3C/C=C\CCN(C3=O)[C@@H](CC3CCC(F)(F)CC3)C(=O)N(C)CC(=O)N[C@@H](CCc3cc(F)c(C(F)(F)F)c(F)c3)C(=O)N2C1 [PP1460]
4. CCO[C@@H]1C[C@H]2C(=O)NC3(CCC3)C(=O)N(C)[C@@H](C3CCCC3)C(=O)N(C)[C@H](C(=O)N(C)C)CC(=O)N(C)[C@@H](CC3CCCC3)C(=O)N[C@@H]([C@@H](C)CC)C(=O)N(C)CC(=O)N(C)[C@H]3C/C=C\CCN(C3=O)[C@@H](Cc3ccc(C(F)(F)F)cc3)C(=O)N(C)CC(=O)N[C@@H](CCc3ccc(Cl)c(Cl)c3)C(=O)N2C1 [PP1254]
5. CCCCCC[C@H]1C(=O)N[C@@H]([C@@H](C)CC)C(=O)N(C)CC(=O)N(C)[C@H]2C/C=C\CCN(C2=O)[C@@H](Cc2ccc(C(F)(F)F)cc2)C(=O)N(C)CC(=O)N[C@@H](CCc2ccc(Cl)c(Cl)c2)C(=O)N2C[C@H](OCC)C[C@H]2C(=O)NC2(CCC2)C(=O)N(C)[C@@H](C2CCCC2)C(=O)N(C)[C@H](C(=O)N(C)C)CC(=O)N1C [PP1252]

1: 0.15; 2: 0.34; 3: 0.23; 4: 0.2; 5: 0.3

---

Exercise: for every item that follows, state its recorded IC50.
# Tested on: human lung cancer strain NCI-H441
# Type: cell-based
Numbers only, in nM.

Known results for compounds:
CCC[C@H]1C(=O)N[C@@H]([C@@H](C)CC)C(=O)N2CCC[C@H]2C(=O)N(C)[C@H]2C/C=C\CCN(C2=O)[C@@H](CC2CCCCC2)C(=O)N(C)CC(=O)N[C@@H](CCc2ccc(C(F)(F)F)c(OC)c2)C(=O)N2C[C@H](OCC)C[C@H]2C(=O)N(C)C2(CCC2)C(=O)N(C)[C@@H](C2CCCC2)C(=O)N(C)[C@H](C(=O)N(C)C)CC(=O)N1C
44.9
CCO[C@@H]1C[C@H]2C(=O)NC3(CC(C)(C)C3)C(=O)N(C)[C@@H](C3CCCC3)C(=O)N(C)[C@H](C(=O)N(C)CC)CC(=O)N(C)[C@H]3CCC/C=C/c4ccc(cc4)C[C@@H](C(=O)N(C)CC(=O)N[C@@H](CCc4cc(F)c(C(F)(F)F)c(F)c4)C(=O)N2C1)N1CC/C=C\C[C@@H](C1=O)N(C)C(=O)CN(C)C(=O)[C@H]([C@@H](C)CC)NC3=O
4.9

According to the records, this compound `CCO[C@@H]1C[C@H]2C(=O)NC3(CCC3)C(=O)N(C)[C@@H](C3CCCC3)C(=O)N(C)[C@H](C(=O)N3CCOCC3)CC(=O)N(C)[C@@H](CC(C)C)C(=O)N[C@@H]([C@@H](C)CC)C(=O)N(C)CC(=O)N(C)[C@H]3C[C@H]4C[C@H]4CN(C3=O)[C@@H](Cc3ccc(C(F)(F)F)cc3)C(=O)N(C)CC(=O)N[C@@H](CCc3cc(F)c(C(F)(F)F)c(F)c3)C(=O)N2C1` displays IC50 of 4.4

---

# system-under-test: GDP-bound KRAS wild-type protein (Homo sapiens)
# test-name: Binding to KRAS by surface plasmon resonance (SPR), dissociation constant KD
# particulars: Single Cycle Kinetics
metric: pKd
Answers are plain numbers, as −log10 of the molar value.

CCCO[C@@H]1C[C@H]2C(=O)NC3(CC(C)(C)C3)C(=O)N(C)[C@@H](C3CCCC3)C(=O)N(C)[C@H](C(=O)N(C)CC)CC(=O)N[C@@H](COCC)C(=O)N[C@@H]([C@@H](C)CC)C(=O)N(C3CC3)CC(=O)N(C)[C@H]3C/C=C\CCN(C3=O)[C@@H](Cc3ccc(C)cc3)C(=O)N(C)CC(=O)N[C@@H](CCc3ccc(C(F)(F)F)c(OC)c3)C(=O)N2C1
8.89
CCO[C@@H]1C[C@H]2C(=O)OC3(CCC3)C(=O)N(C)[C@@H](C3CCCC3)C(=O)N(C)[C@H](C(=O)N(C)C)CC(=O)N(C)[C@@H]([C@@H](C)OC)C(=O)N[C@@H]([C@@H](C)CC)C(=O)N3CCC[C@H]3C(=O)N(C)[C@H]3C/C=C\CCN(C3=O)[C@@H](Cc3ccc(C(F)(F)F)cc3)C(=O)N(C)CC(=O)N[C@@H](CCc3ccc(C(F)(F)F)c(OC)c3)C(=O)N2C1
9.39

--- query ---
According to the records, this molecule `CCCOC[C@@H]1NC(=O)C[C@@H](C(=O)N(C)CCC)N(C)C(=O)[C@H](C2CCCC2)N(C)C(=O)C2(CC(C)(C)C2)NC(=O)[C@@H]2C[C@@H](OCC)CN2C(=O)[C@H](CCc2ccc(C(F)(F)F)c(Cl)c2)NC(=O)CN(C)C(=O)[C@H](Cc2ccc(C(F)(F)F)cc2)N2CC/C=C\C[C@@H](C2=O)N(C)C(=O)CN(C)C(=O)[C@H]([C@@H](C)CC)NC1=O` displays pKd of 9.29

---

# Test system: human lung cancer strain NCI-H441
# test-name: NCI-H441 cell proliferation inhibitory activity (CellTiter-Glo, 4 days)
# Format: cell-based
# particulars: NCI-H441 cells, 4 days, read-out: NCl-H441 IC50
# Experimental: A test compound was dispensed into a U-bottom 384-well plate as 40 nL serially diluted dimethyl sulfoxide solutions using a liquid handler Echo (LABCYTE). […] This cell suspension was dispensed in an amount of 40 µL per well into a plate containing the test compound, and cultured at 37°C in a 5% carbon dioxide gas incubator. Four days later, 20 µL of CellTiter-Glo (registered trademark) (Promega) was added to each well and […] was measured. […]
Exercise: for every item that follows, state its recorded pIC50.
Answers are plain numbers, as −log10 of the molar value.

Known results for compounds:
CCCC[C@H]1C(=O)N[C@@H]([C@@H](C)CC)C(=O)N2CCC[C@H]2C(=O)N(C)[C@H]2C/C=C\CCN(C2=O)[C@@H](Cc2ccc(C(F)(F)F)cc2)C(=O)N(C)CC(=O)N[C@@H](CCc2ccc(C(F)(F)F)c(OC)c2)C(=O)N2C[C@H](OCC)C[C@H]2C(=O)OC2(CCC2)C(=O)N(C)[C@@H](C2CCCC2)C(=O)N(C)[C@H](C(=O)N(C)C)CC(=O)N1C [PP3365]
7.71
CCC[C@H]1C(=O)N[C@@H]([C@@H](C)CC)C(=O)N(C)CC(=O)N(C)[C@H]2C/C=C\CCN(C2=O)[C@@H](Cc2ccc(C)cc2)C(=O)N(C)CC(=O)N[C@@H](CCc2ccc(C(F)(F)F)c(OC)c2)C(=O)N2CC3(CC3)C[C@H]2C(=O)N(C)C2(CCC2)C(=O)N(C)[C@@H](C(CC)CC)C(=O)N(C)[C@H](C(=O)N(C)C)CC(=O)N1C [PP3292]
8.27

--- query ---
According to the records, this compound CCCC[C@@H]1NC(=O)C[C@@H](C(=O)N(C)C)N(C)C(=O)[C@H](C2CCCC2)N(C)C(=O)C2(CC(C)(C)C2)NC(=O)[C@@H]2C[C@@H](OCC)CN2C(=O)[C@H](CCc2ccc(C(F)(F)F)c(Cl)c2)NC(=O)CN(C)C(=O)[C@H](Cc2ccc(C(F)(F)F)cc2)N2CC/C=C\C[C@@H](C2=O)N(C)C(=O)CN(C)C(=O)[C@H]([C@@H](C)CC)NC1=O [PP3453] displays pIC50 of 7.71
